# Tested on: KRAS patient-derived spheroids with HUVEC/MSC, viability
# Procedure text: Anticancer human tumor 519858-162-T-J1-PDC patient-derived colon adenocarcinoma cell line growth inhibition [KRAS2]
# Protocol conditions: second compound 0.0316 µM; first compound 0.01 µM; stronger effect = lower value
# Text: Multicellular complex tumor spheroid response to RAS pathway inhibitors in combination with a targeted agents in patient-derived cell lines with oncogenic KRAS variants from multiple cancer types A high-throughput screen of multi-cell type tumor spheroids was designed to identify active combinations of targeted small molecules and KRAS pathway inhibitors. […] Compounds. […] If the clinical Cmax for an agent had not been determined, the highest concentration tested was 10 microM. […]
Listing of recorded viability, T/C by entry.
// return numeric value only (unit: %, not printed)

Sample answers from the record:
Compound	Result value
CC1COCCN1c1cc(-c2ccnn2C)c2ccnc(-c3ccn[nH]3)c2n1 (centres undefined) + C=CC(=O)N1CCN(c2nc(OCC3CCCN3C)nc3c2CCN(c2cccc4cccc(C)c24)C3)CC1CC#N	98.8
CC(=O)Nc1cccc(-n2c(=O)n(C3CC3)c(=O)c3c(Nc4ccc(I)cc4F)n(C)c(=O)c(C)c32)c1 + C=CC(=O)N1CCN(c2nc(OCC3CCCN3C)nc3c2CCN(c2cccc4cccc(C)c24)C3)CC1CC#N	29.8

Per the records, this compound ( Cn1ncnc1[C@H]1c2n[nH]c(=O)c3cc(F)cc(c23)N[C@@H]1c1ccc(F)cc1 + C=CC(=O)N1CCN(c2nc(OCC3CCCN3C)nc3c2CCN(c2cccc4cccc(C)c24)C3)CC1CC#N ) has viability, T/C equal to 89.1

Per the records, this compound ( CCN1CCN(Cc2ccc(Nc3ncc(F)c(-c4cc(F)c5nc(C)n(C(C)C)c5c4)n3)nc2)CC1 + C=CC(=O)N1CCN(c2nc(OCC3CCCN3C)nc3c2CCN(c2cccc4cccc(C)c24)C3)CC1CC#N ) has viability, T/C equal to 57.7

----------
# Test system: KRAS patient-derived spheroids with HUVEC/MSC, viability
# Procedure text: Anticancer human tumor 519858-162-T-J1-PDC cell line growth inhibition [KRAS2];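 also: compound exposure lasted seven days before readout; 100% = DMSO vehicle control viability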
# Protocol conditions: second compound 0.1 µM; first compound 0.1 µM; stronger effect = lower value
So basically, if viability, T/C comes in under 90% it's Criterion met, and if it's 90% or more it's Criterion not met.

Answered cases to consult:
Compound	Class
Cn1nccc1Nc1nccc(-c2cc3c(s2)C(C)(C)N(CCN2CCOCC2)C3=O)n1 + C=CC(=O)N1CCN(c2nc(=O)n(-c3c(C)ccnc3C(C)C)c3nc(-c4c(O)cccc4F)c(F)cc23)C(C)C1	Criterion not met
CC(=O)OC12COC1CC(O)C1(C)C(=O)C(O)C3=C(C)C(OC(=O)C(O)C(NC(=O)OC(C)(C)C)c4ccccc4)CC(O)(C(OC(=O)c4ccccc4)C21)C3(C)C (stereo not given) + COc1cc2nc(C)nc(NC(C)c3cc(N)cc(C(F)(F)F)c3)c2cc1OC1CCOC1	Criterion not met

Please check: viability, T/C for COC(=O)c1ccc2c(C(=Nc3ccc(N(C)C(=O)CN4CCN(C)CC4)cc3)c3ccccc3)c(O)[nH]c2c1 + CNCc1ccccc1-c1csc(C(C)Nc2nc(C)nc3cc(OC)c(OC)cc23)c1 , strictly under 90% or not? Criterion met

Please check: viability, T/C for O=C(c1cc(Cc2n[nH]c(=O)c3ccccc23)ccc1F)N1CCN(C(=O)C2CC2)CC1 + C=CC(=O)N1CCN(c2nc(=O)n(-c3c(C)ccnc3C(C)C)c3nc(-c4c(O)cccc4F)c(F)cc23)C(C)C1 , strictly under 90% or not? Criterion not met

Please check: viability, T/C for Cn1nccc1Nc1nccc(-c2cc3c(s2)C(C)(C)N(CCN2CCOCC2)C3=O)n1 + C=CC(=O)N1CCN(c2nc(OCC3CCCN3C)nc3c2CCN(c2cccc4cccc(C)c24)C3)CC1CC#N , strictly under 90% or not? Criterion met
